MEASUREMENT TARGET: human JAK3 (a.a. 781-1124) (Homo sapiens)
Construct: JAK3 (a.a. 781-1124); His tag (N); made in house; host or cells: insect cells (baculovirus)
Sequence (P52333 781-1124): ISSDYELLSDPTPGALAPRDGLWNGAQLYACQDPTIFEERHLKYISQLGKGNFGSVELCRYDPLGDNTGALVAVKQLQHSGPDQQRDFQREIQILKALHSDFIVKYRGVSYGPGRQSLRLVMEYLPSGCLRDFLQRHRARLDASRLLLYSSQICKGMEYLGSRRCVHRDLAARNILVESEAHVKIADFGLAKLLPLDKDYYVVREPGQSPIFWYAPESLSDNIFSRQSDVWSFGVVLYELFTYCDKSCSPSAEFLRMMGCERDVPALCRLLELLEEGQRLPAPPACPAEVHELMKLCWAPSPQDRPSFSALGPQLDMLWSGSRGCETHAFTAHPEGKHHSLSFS
PROTOCOL DETAILS: In vitro JAK kinase assay (HTRF, phosphorylation of a biotinylated peptide), JAK3
Assay type: biochemical
MEASUREMENT PARAMETERS: Table B1
Structures can show the parent of a compound that is named as a salt.
MEASURED METRIC: IC50

| MOLECULE | MEASURED METRIC | RESULT |
| --- | --- | --- |
| O=C(Nc1ccc2cc1CCc1cccc(c1)Nc1ncc(Cl)c(n1)N2)NC1CCCC1 [Example B88, trifluoroacetate] | IC50 | 29 nM |
| O=C(Nc1cccc(Cl)c1)c1cc2cc(c1)Nc1nc(ncc1Cl)Nc1cccc(c1)CC2 [Example B13, trifluoroacetate] | IC50 | 682 nM |
| O=S(=O)(Nc1ccc2cc1CCc1cccc(c1)Nc1ncc(Cl)c(n1)N2)c1cccs1 [Example B146, trifluoroacetate] | IC50 | 2.6 nM |
| CC(C)(C)OC(=O)NCCNC(=O)Nc1ccc2cc1CCc1cccc(c1)Nc1ncc(Cl)c(n1)N2 | IC50 | 46 nM |
| Cc1nc(S(=O)(=O)N2CCC(CN(C)Cc3ccc4cc3CCc3cncc(c3)Nc3ncc(Cl)c(n3)N4)CC2)cn1C [Example B343, tris(trifluoroacetate)] | IC50 | > 400 nM |
| Cc1occc1NC(=O)Nc1ccc2cc1CCc1cccc(c1)Nc1ncc(Cl)c(n1)N2 [Example B118, trifluoroacetate] | IC50 | 20 nM |
| O=S(=O)(Cc1ccccc1)Nc1ccc2cc1CCc1cccc(c1)Nc1ncc(Cl)c(n1)N2 [Example B147, trifluoroacetate] | IC50 | 37 nM |
| CS(=O)(=O)N1CC[C@@H](NC(=O)Nc2ccc3cc2CCc2cccc(c2)Nc2ncc(Cl)c(n2)N3)C1 [Example B178, trifluoroacetate] | IC50 | 17 nM |
| CC(C)(C)OC(=O)N1CCCC(NC(=O)Nc2ccc3cc2CCc2cccc(c2)Nc2ncc(Cl)c(n2)N3)C1 (centres unmarked) | IC50 | 122 nM |
| Cc1cc(C(=O)Nc2ccc3cc2CCc2cccc(c2)Nc2ncc(Cl)c(n2)N3)nc(Cl)n1 [Example B280, bis(trifluoroacetate)] | IC50 | > 10000 nM |
| O=C(Nc1ccccc1Cl)c1cc2cc(c1)Nc1nc(ncc1Cl)Nc1cccc(c1)CC2 [Example B14, trifluoroacetate] | IC50 | 314 nM |
| O=C(Nc1ccc2cc1CCc1cccc(c1)Nc1ncc(Cl)c(n1)N2)N[C@H]1CCN(c2ncccn2)C1 [Example B262, bis(trifluoroacetate)] | IC50 | 38 nM |
| CC(C)(C)OC(=O)N1CC[C@H](NC(=O)Nc2ccc3cc2CCc2cccc(c2)Nc2ncc(Cl)c(n2)N3)C1 | IC50 | 39 nM |
| N#Cc1ccc(N2CCN(C(=O)Nc3ccc4cc3CCc3cncc(c3)Nc3ncc(Cl)c(n3)N4)CC2)cc1 [Example B303, tris(trifluoroacetate)] | IC50 | > 400 nM |
| O=C(Nc1ccc2cc1CCc1cncc(c1)Nc1ncc(Cl)c(n1)N2)N1CCC(c2ccccc2)C1 (centres unmarked) [Example B312, bis(trifluoroacetate)] | IC50 | > 400 nM |
| O=C(Nc1ccc2cc1CCc1cccc(c1)Nc1ncc(Cl)c(n1)N2)c1ccoc1 [Example B59, trifluoroacetate] | IC50 | 5.1 nM |
| N#Cc1ccccc1S(=O)(=O)Nc1cc2cc(c1)Nc1nc(ncc1Cl)Nc1cccc(c1)CC2 [Example B216, trifluoroacetate] | IC50 | 166 nM |
| O=C(Nc1ccc2cc1CCc1cncc(c1)Nc1ncc(Cl)c(n1)N2)N1CCN(c2cccc(Cl)c2)CC1 [Example B306, tris(trifluoroacetate)] | IC50 | > 400 nM |
| O=C(NCCNS(=O)(=O)C1CC1)Nc1ccc2cc1CCc1cccc(c1)Nc1ncc(Cl)c(n1)N2 [Example B327, trifluoroacetate] | IC50 | 4.2 nM |
| O=S(=O)(Nc1ccc2cc1CCc1cccc(c1)Nc1ncc(Cl)c(n1)N2)c1ccc(C(F)(F)F)cc1 [Example B162, trifluoroacetate] | IC50 | 26 nM |
| O=C(Nc1cc2cc(c1)Nc1nc(ncc1Cl)Nc1cccc(c1)CC2)C1CCC1 [Example B211, trifluoroacetate] | IC50 | 135 nM |
| O=C(NCc1ccccc1)Nc1ccc2cc1CCc1cccc(c1)Nc1ncc(Cl)c(n1)N2 [Example B93, trifluoroacetate] | IC50 | 43 nM |
| COCCNC(=O)Nc1ccc2cc1CCc1cccc(c1)Nc1ncc(Cl)c(n1)N2 [Example B243, trifluoroacetate] | IC50 | 16 nM |
| Clc1cnc2nc1Nc1ccc(CN[C@H]3CCNC3)c(c1)CCc1cccc(c1)N2 [Example B223, tris(trifluoroacetate)] | IC50 | 29 nM |
| Cc1oncc1C(=O)N1CCC(NC(=O)Nc2ccc3cc2CCc2cccc(c2)Nc2ncc(Cl)c(n2)N3)CC1 [Example B264, trifluoroacetate] | IC50 | 216 nM |
| O=C(Nc1ccc2cc1CCc1cncc(c1)Nc1ncc(Cl)c(n1)N2)N1CCNCC1 | IC50 | > 200 nM |
